System: K-562 leukemia
Experiment: NCI tumour cell line growth inhibition, 48 h
Where a SMILES comes first, the peptide text is derived from it. The star is where a group is joined. Boc = CC(C)(C)OC(=O)*
The molecules listed here are annotated with their TGI.

>>> recorded_result("COP(=O)(OC)C(C)(C)NC(=O)NC(F)(F)F")
"> 100 µM"
>>> recorded_result("N#Cc1cccc(N2C(=O)c3ccc(C(=O)c4ccc5c(c4)C(=O)N(c4cccc(C#N)c4)C5=O)cc3C2=O)c1")
"> 100 µM"
>>> recorded_result("CC(C)(OCc1ccccc1)c1ccccc1P(c1ccccc1)c1ccccc1")
"> 100 µM"
>>> recorded_result("CSCCC(NC(=O)CNC(=O)C(CC(=O)O)NC(=O)C(NC(=O)C(NC(=O)C(NC(=O)CNC(=O)C(CCC(N)=O)NC(=O)C(CCSC)NC(=O)C(CC(=O)O)NC(=O)C(C)NC(=O)C(C)NC(=O)C(NC(=O)C(CO)NC(=O)C(N)CC(C)C)C(C)O)C(C)C)C(C)C)C(C)O)C(=O)NC(C)C(=O)NC(CO)C(=O)NCC(=O)NC(CC(C)C)C(=O)NC(CC(=O)O)C(=O)NC(CCCCN)C(=O)NC(CC(=O)O)C(=O)NC(Cc1ccc(O)cc1)C(=O)NC(CC(C)C)C(=O)NC(CCCCN)C(=O)N1CCCC1C(=O)NC(CC(=O)O)C(=O)NC(CC(=O)O)C(=O)O (stereo not given)")
"> 82.5 µM"
>>> recorded_result("OCC#Cc1ccccc1C#CCCCCCCC#Cc1ccccc1C#CCO")
"40.8 µM"
>>> recorded_result("CC(NC(=O)OC(C)(C)C)C(=O)NC(Cc1ccccc1)C(=O)NCC(=O)O (stereo not drawn) (Boc-Ala-Phe-Gly-OH; configuration not given here)")
"> 100 µM"

## Input Which measured TGI belongs to `CCCCCCCCCCCC(=O)c1c(O)cc(C)oc1=O` , tested on K-562 leukemia?
## Output > 100 µM

## Input Which measured TGI belongs to `COc1ccc(/C=C2\N=C(SC)N(C)C2=O)cc1` , tested on K-562 leukemia?
## Output > 100 µM

###

System: SR leukemia
Test: NCI tumour cell line growth inhibition, 48 h; in the data active means GI50 below about 0.43 µM; inactive means the rest
Just give me one of these, please: true (1) = active, false (0) = inactive

>>> assigned_label("CC(=O)c1cnc2ccc(-c3cc(Cl)c(O)c(Cl)c3)nc2c1NC1CCC(CN(C)C)CC1 (configuration not stated)")
"true (1)"
>>> assigned_label("C[C@H](O)CNc1cc(-c2[nH]c3cccnc3c2-c2ccc(F)cc2)ccn1")
"false (0)"
>>> assigned_label("Cc1cc(C)c(C#N)c(SCC(=O)c2sc3c(C#N)c(C)cc(C)[n+]3c2[O-])n1")
"true (1)"
>>> assigned_label("OCC#Cc1ccccc1C#CCCCCCCC#Cc1ccccc1C#CCO")
"false (0)"
>>> assigned_label("CN1C(=O)N(C)C2C1NN=c1s/c(=C\\c3ccccc3F)c(=O)n12 (configuration not stated)")
"true (1)"

## Input Would you mind telling me which call this test gave CSCCC(NC(=O)CNC(=O)C(CC(=O)O)NC(=O)C(NC(=O)C(NC(=O)C(NC(=O)CNC(=O)C(CCC(N)=O)NC(=O)C(CCSC)NC(=O)C(CC(=O)O)NC(=O)C(C)NC(=O)C(C)NC(=O)C(NC(=O)C(CO)NC(=O)C(N)CC(C)C)C(C)O)C(C)C)C(C)C)C(C)O)C(=O)NC(C)C(=O)NC(CO)C(=O)NCC(=O)NC(CC(C)C)C(=O)NC(CC(=O)O)C(=O)NC(CCCCN)C(=O)NC(CC(=O)O)C(=O)NC(Cc1ccc(O)cc1)C(=O)NC(CC(C)C)C(=O)NC(CCCCN)C(=O)N1CCCC1C(=O)NC(CC(=O)O)C(=O)NC(CC(=O)O)C(=O)O (configuration not stated) ?
## Output false (0)

## Input Would you mind telling me which call this test gave CCOC(=O)C1=C(N)CCC1C (configuration not stated) ?
## Output false (0)
